The measurements presented in this section are drawn from PubChem BioAssay (NCI).

tested on: OVCAR-8 ovarian; test: NCI tumour cell line growth inhibition, 48 h; in the data active = GI50 below about 0.43 µM; inactive = the rest
Hi there, use one of these labels in your reply, thanks! 1 = active, 0 = inactive

Before answering, review these 4 worked examples.
Molecule: Oc1c(Cl)cc(Cl)c2ccc(Cn3cc(-c4ccc(C(F)(F)F)cc4)nn3)nc12
Target Desc: OVCAR-8 ovarian
Qualitative Label: 0
//
Molecule: CN1CCN(Cc2ccc(NC(=O)c3cncc(C#Cc4cnc(N)c5cccnc45)c3)cc2C(F)(F)F)CC1
Target Desc: OVCAR-8 ovarian
Qualitative Label: 1
//
Molecule: CC(=O)[CH-]C(=O)c1ccccc1.CC(=O)[CH-]C(=O)c1ccccc1.CC(=O)[CH-]C(=O)c1ccccc1.[Nd+3].[OH3+]
Target Desc: OVCAR-8 ovarian
Qualitative Label: 0
//
Molecule: CC1NC(=O)C2=C1C(=O)NC(=O)C2 (stereo not given)
Target Desc: OVCAR-8 ovarian
Qualitative Label: 0

Lab note: next molecule to report on.
Record request — test call for CC(=O)C1=C(O)C=C2Oc3c(C(=O)/C=C/c4cc(Cl)cc(Cl)c4)c(O)c(C)c(O)c3[C@]2(C)C1=O 0
